inhibition at 50 µM by entry:
# study target: Jak2 (Homo sapiens)
# Construct: The kinase domain of humanJAK2 was amplified from U937mRNA; His tag (from pFastBac HTc vector) (N); made in house; host or cells: baculovirus; Sf9 insect cells for virus, High Five cells for large-scale production
# assay name: JAK2 kinase domain assay (ELISA or Alphascreen)
# Format: biochemical
# condition parameters: capacity to inhibit 50% of activity at 50 μM; read-out: Jak2 inhibitory activity

Please review the entries below; each comes with its answer.
C[C@H](Nc1cncc(-n2cnc3cc(NC(=O)C4CCCNC4)ccc32)n1)c1ccccc1 (stereo partly shown); > 50%
COCC(=O)Nc1ccc2ncn(-c3cncc(N[C@@H](C)c4ccccc4)n3)c2c1; > 50%
CC(Nc1cncc(-n2cnc3ccccc32)n1)c1ccc(F)cc1 (stereo not shown); > 50%
C[C@H](Nc1cncc(-n2cnc3cc(NS(C)(=O)=O)ccc32)n1)c1ccccc1; > 50%
C[C@H](Nc1cncc(-n2cnc3ccc(C(=O)N4CCN(C)CC4)cc32)n1)c1ccccc1; < 50%

# ---- query compound ----
Query: inhibition at 50 µM; subject: "C[C@H](Nc1cncc(-n2cnc3ccc(NC(=O)C(C)(C)C)cc32)n1)c1ccccc1"
> 50%

* * *

# study target: Jak2 (Homo sapiens, UniProt O60674)
# Construct: The kinase domain of humanJAK2 was amplified from U937mRNA; His tag (from pFastBac HTc vector) (N); made in house; host or cells: baculovirus; Sf9 insect cells for virus, High Five cells for large-scale production
# Sequence (O60674 849-1124 limits assumed): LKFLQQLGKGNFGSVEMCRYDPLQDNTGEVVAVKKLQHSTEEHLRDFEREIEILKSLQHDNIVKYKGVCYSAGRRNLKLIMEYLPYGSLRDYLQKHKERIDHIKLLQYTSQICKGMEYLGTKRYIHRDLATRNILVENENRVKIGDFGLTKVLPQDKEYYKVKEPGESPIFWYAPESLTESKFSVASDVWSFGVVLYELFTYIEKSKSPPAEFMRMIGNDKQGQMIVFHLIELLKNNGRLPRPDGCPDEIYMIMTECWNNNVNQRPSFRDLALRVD
# assay name: JAK2 kinase domain assay (ELISA or Alphascreen)
# Assay type: biochemical
# condition parameters: capacity to inhibit 50% of activity at 50 μM; read-out: Jak2 inhibitory activity
In this section we review reported inhibition at 50 µM values for a set of compounds.

// solved cases for inhibition at 50 µM follow
C[C@@H](Nc1cncc(-n2ccnc2)n1)c1ccccc1; < 50%
C[C@H](Nc1cncc(-n2cnc3cc(NC(=O)c4ccccc4)ccc32)n1)c1ccccc1; < 50%
C[C@H](Nc1cncc(-n2cnc3ccccc32)n1)c1ccc(Br)cc1; < 50%

Dear colleague, I am looking for the recorded inhibition at 50 µM of the following compound: "CC(=O)Nc1ccc2ncn(-c3cncc(N[C@@H](C)c4ccccc4)n3)c2c1"
> 50%

// next record "C[C@H](Nc1cncc(-n2cnc3cc(C(=O)NCCCn4ccnc4)ccc32)n1)c1ccccc1"
> 50%

Now consider "C[C@H](Nc1cncc(-n2cnc3ccc(NC(=O)c4cnccn4)cc32)n1)c1ccccc1" .
> 50%

* * *

# study target: abl (Homo sapiens, UniProt P00519)
# Sequence (P00519 242-493 limits assumed, species assumed): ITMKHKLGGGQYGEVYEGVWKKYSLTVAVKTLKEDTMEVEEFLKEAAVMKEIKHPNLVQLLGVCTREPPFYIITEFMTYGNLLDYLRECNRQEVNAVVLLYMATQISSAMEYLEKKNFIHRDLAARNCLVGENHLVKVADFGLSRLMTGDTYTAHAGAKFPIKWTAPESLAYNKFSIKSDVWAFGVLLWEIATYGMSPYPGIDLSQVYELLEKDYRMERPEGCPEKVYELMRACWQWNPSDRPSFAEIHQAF
# assay name: abl kinase assay (ELISA or Alphascreen)
# Type: biochemical
# condition parameters: capacity to inhibit 50% of activity at 50 μM; read-out: abl inhibitory activity
Below, each entry is listed alongside its reported inhibition at 50 µM.

Quick one: inhibition at 50 µM of "C[C@H](Nc1cncc(-n2cnc3ccc(N)cc32)n1)c1ccccc1" ?
> 50%

Same read-out for "C[C@H](Nc1cncc(-n2cnc3cc(CO)ccc32)n1)c1ccccc1" ?
< 50%

Please do the same for CC(Nc1cncc(-n2cnc3ccccc32)n1)c1ccc(F)cc1 (stereo not shown) as well.
> 50%

Also, "C[C@H](Nc1cncc(-n2cnc3cc(NC(=O)[C@@H]4CCCN4C(=O)OC(C)(C)C)ccc32)n1)c1ccccc1" please.
> 50%

* * *

# study target: Jak2 (Homo sapiens, UniProt O60674)
# Construct: The kinase domain of humanJAK2 was amplified from U937mRNA; His tag (from pFastBac HTc vector) (N); made in house; host or cells: baculovirus; Sf9 insect cells for virus, High Five cells for large-scale production
# assay name: JAK2 kinase domain assay (ELISA or Alphascreen)
# Format: biochemical
# condition parameters: capacity to inhibit 50% of activity at 50 μM; read-out: Jak2 inhibitory activity
Recorded measurements of inhibition at 50 µM, one per entry

Recorded inhibition at 50 µM, per entry:
C[C@H](Nc1cncc(-n2cnc3ccc(C(=O)NCCCN4CCOCC4)cc32)n1)c1ccccc1; > 50%
C[C@H](Nc1cncc(-n2cnc3ccc(C4=NCCO4)cc32)n1)c1ccccc1; > 50%

Please look up its inhibition at 50 µM: "C[C@H](Nc1cncc(-n2cnc3ccc(CO)cc32)n1)c1ccccc1"
> 50%

Moving on to "C[C@H](Nc1cncc(-n2cnc3cc(-c4cccnc4)ccc32)n1)c1ccccc1"
> 50%

Next compound: "Cc1nccn1-c1cncc(N[C@H](C)c2ccccc2)n1"
< 50%

# repeat for "C[C@H](Nc1cncc(-n2cnc3cc(NCc4cccnc4)ccc32)n1)c1ccccc1"
> 50%

Also "C[C@H](Nc1cncc(-n2cnc3cc(NC(=O)c4ccncc4)ccc32)n1)c1ccccc1" ?
< 50%

Queued: "C[C@H](Nc1cncc(-n2cnc3ccc(NC(=O)C4CC4)cc32)n1)c1ccccc1"
< 50%

Next up: "c1ccc(CNc2cncc(-n3cnc4ccccc43)n2)cc1"
> 50%

And then "C[C@H](Nc1cncc(-n2cnc3ccc(NC(=O)c4cccnc4)cc32)n1)c1ccccc1" , what is it?
> 50%

Request: CC(Nc1cncc(-n2cnc3ccccc32)n1)c1ccc(-c2ccccc2)cc1 (stereo not drawn)
< 50%

Another: "C[C@@H](Nc1cncc(-n2cnc3ccccc32)n1)c1ccccc1"
> 50%

* * *

This listing pairs molecules with measured inhibition at 50 µM.
# study target: Jak2 (Homo sapiens)
# Construct: The kinase domain of humanJAK2 was amplified from U937mRNA; His tag (from pFastBac HTc vector) (N); made in house; host or cells: baculovirus; Sf9 insect cells for virus, High Five cells for large-scale production
# assay name: JAK2 kinase domain assay (ELISA or Alphascreen)
# Format: biochemical
# condition parameters: capacity to inhibit 50% of activity at 50 μM; read-out: Jak2 inhibitory activity

Recorded results for 5 molecules are shown here.
Cc1ccc2c(c1)ncn2-c1cncc(N[C@@H](C)c2ccccc2)n1; > 50%
Cc1nccn1-c1cncc(NCc2ccc(F)cc2)n1; < 50%
C[C@H](Nc1cncc(-n2cnc3cc(NC(=O)C4CCCN4)ccc32)n1)c1ccccc1 (stereo partly drawn); > 50%
Cc1cncn1-c1cncc(NCc2ccc(F)cc2)n1; < 50%
C[C@H](Nc1cncc(-n2cnc3cc(C(N)=O)ccc32)n1)c1ccccc1; > 50%

Form: Entry = "COc1ccc([C@H](C)Nc2cncc(-n3cnc4ccccc43)n2)cc1" | System = Jak2 (Homo sapiens) | inhibition at 50 µM = ____
< 50%

Query "c1cn(-c2cncc(Nc3ccc(N4CCOCC4)cc3)n2)cn1" next
> 50%

And the next one, "C[C@H](Nc1cncc(-n2cnc3cc(-c4ccncc4)ccc32)n1)c1ccccc1" ?
> 50%

Same again, this time with "CNC(=O)c1ccc2ncn(-c3cncc(N[C@@H](C)c4ccccc4)n3)c2c1"
> 50%

Next: "C[C@H](Nc1cncc(-n2ccnc2)n1)c1ccccc1"
< 50%

Also check "C[C@H](Nc1cncc(-n2cnc3cc(CN4CCN(C)CC4)ccc32)n1)c1ccccc1"
< 50%

* * *

# study target: Jak2 (Homo sapiens)
# Construct: The kinase domain of humanJAK2 was amplified from U937mRNA; His tag (from pFastBac HTc vector) (N); made in house; host or cells: baculovirus; Sf9 insect cells for virus, High Five cells for large-scale production
# assay name: JAK2 kinase domain assay (ELISA or Alphascreen)
# Type: biochemical
# condition parameters: capacity to inhibit 50% of activity at 50 μM; read-out: Jak2 inhibitory activity
reported metric: inhibition at 50 µM

Here are 3 molecules together with their reported answers.
CC(Nc1cncc(-n2cnc3ccc(CN4CCN(C)CC4)cc32)n1)c1ccc(F)cc1 (stereo not shown); < 50%
C[C@H](Nc1cncc(-n2cnc3cc(C(=O)N4CCN(C)CC4)ccc32)n1)c1ccccc1; < 50%
C[C@H](Nc1cncc(-n2cnc3cc(C(=O)NCCN(C)C)ccc32)n1)c1ccccc1; > 50%

Alright, here's another molecule for you.
State the recorded inhibition at 50 µM for this entry: "Fc1ccc(CNc2cncc(-n3cnc4ccccc43)n2)cc1"
> 50%

* * *

# study target: Jak2 (Homo sapiens)
# Construct: The kinase domain of humanJAK2 was amplified from U937mRNA; His tag (from pFastBac HTc vector) (N); made in house; host or cells: baculovirus; Sf9 insect cells for virus, High Five cells for large-scale production
# assay name: JAK2 kinase domain assay (ELISA or Alphascreen)
# Format: biochemical
# condition parameters: capacity to inhibit 50% of activity at 50 μM; read-out: Jak2 inhibitory activity
reported metric: inhibition at 50 µM

Consider the worked cases shown below.
C[C@H](Nc1cncc(-n2cnc3ccc(C(=O)NCCO)cc32)n1)c1ccccc1; > 50%
C[C@H](Nc1cncc(-n2cnc3ccccc32)n1)c1ccc(-c2cccnc2)cc1; > 50%
CC(Nc1cncc(-n2cnc3ccccc32)n1)c1cccnc1 (stereo not shown); > 50%

So what's the measured inhibition at 50 µM for this one? "C[C@H](Nc1cncc(-n2cnc3cc(NC(=O)c4cccnc4)ccc32)n1)c1ccccc1"
> 50%
